target: human MC4R receptor (human, UniProt P32245 1-332); experiment: cell-based or functional assay
Sequence (P32245 whole entry): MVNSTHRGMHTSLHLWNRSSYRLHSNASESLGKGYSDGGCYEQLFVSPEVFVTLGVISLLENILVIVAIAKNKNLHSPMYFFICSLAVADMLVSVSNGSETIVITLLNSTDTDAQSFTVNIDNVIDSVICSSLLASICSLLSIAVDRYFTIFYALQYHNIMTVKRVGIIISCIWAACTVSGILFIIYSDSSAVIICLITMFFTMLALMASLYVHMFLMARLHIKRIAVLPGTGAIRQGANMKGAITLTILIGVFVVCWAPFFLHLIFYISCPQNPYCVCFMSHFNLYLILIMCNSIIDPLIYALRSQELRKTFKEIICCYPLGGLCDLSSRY
Positions of bridges follow the written chain, without caps; N, C: chain ends. Non-standard residues stand in square brackets, D forms with d. Cit = NC(=O)NCCC[C@H](N)C(=O)O; Aib = CC(C)(N)C(=O)O
readout: % max activation (%)
Give just the number in %; leave the unit off.

{"columns": ["binder", "readout", "unitText", "result"],
 "data": [
  ["Ac-RCGR[dF]RWC-NH2 (disulfide 2-8; SMILES CC(=O)N[C@@H](CCCNC(=N)N)C(=O)N[C@H]1CSSC[C@@H](C(N)=O)NC(=O)[C@H](Cc2c[nH]c3ccccc23)NC(=O)[C@H](CCCNC(=N)N)NC(=O)[C@@H](Cc2ccccc2)NC(=O)[C@H](CCCNC(=N)N)NC(=O)CNC1=O) [CTX-1293]", "% max activation", "%", 87]
]}

We now examine a further binder.
Qu. Give the value of % max activation reported for the following: Ac-C[Aib][Cit][dF]RWC-NH2 (disulfide 1-7; SMILES CC(=O)N[C@H]1CSSC[C@@H](C(N)=O)NC(=O)[C@H](Cc2c[nH]c3ccccc23)NC(=O)[C@H](CCCNC(=N)N)NC(=O)[C@@H](Cc2ccccc2)NC(=O)[C@H](CCCNC(N)=O)NC(=O)C(C)(C)NC1=O) [CTX-1633]
Ans. 110
